Assay: protein stability index of a GFP-peptide fusion (GPS, HEK-293T) (PSI 1-6); higher = more stable;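 also: 24-mer peptide tiles fused after GFP, lentivirally expressed, FACS-sorted into six equal bins by GFP/DsRed ratio, decoded by Illumina sequencing, PSI is the read-weighted mean bin number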
Details: treatment: MLN4924 1 uM, 8 h; c terminus: a fixed tail appended
METRIC: protein stability index
Response field accepts a number only; no unit should be typed.

KEQDGREVDWEYFYGLLFTSENLK [DFFB]
2.93

# lookup: protein stability index of EEDNVEESEEEGPWEPPVLPILTW [HDAC6] 4.62

Given the sequence TGLVGLFVDFFVRLFTQLKFGVVQ [CLCN6] , what is its reported protein stability index? 2.54

May I ask what protein stability index has been recorded for SFAILRIIRLVRVFRIFKLSRHSK [KCNA4] ? 2.44

---

Reported protein stability index values follow for various sequences
Experiment: protein stability index of a GFP-peptide fusion (GPS, HEK-293T) (PSI 1-6); higher = more stable
Settings: treatment: MLN4924 1 uM, 8 h; c terminus: a fixed tail appended

YMMAKKHLEINPDHPIVETLRQKA [HSP90AB1]
3.19
FRDATSAPLRKLSVDLIKTYKHIN [DYRK1B]
3.39
AEAERLDVKAMGPLVLTEVLFNEK [EIF5]
4.17

Next sequence, please.
Field request: protein stability index | item: AGELRKPTQEEWRQVVDILWSDPM [PPEF2] 2.97

---

Test: protein stability index of a GFP-peptide fusion (GPS, HEK-293T) (PSI 1-6); higher = more stable
Conditions: treatment: DMSO; c terminus: a fixed tail appended
METRIC: protein stability index
Give the figure by itself; no unit, no explanation.

The cases that follow already have their protein stability index on record.
CFPRLDINVSKGINHLLKSPFSVH [PRIM1]
2.14
FSDSSMDHFQKFLPTVGGQLGTAG [MYOZ1]
2.78
EMDKLRASDIMEPNLTYVYPHTRI [CLCN6]
2.58
RSETFLEVWGNALLRPPVAAFVRA [DNAAF3]
2.22
LDLDSIIDEVRTQYEEIALKSKAE [KRT71]
3.91
FRYLQGMLEAGEGGDWPGPGGPRN [PDLIM4]
2.76
KTRVDLKELGQSQKEQGLSDNILS [PDZK1]
4.55
RSRIEALELLGASFANDRENYDII [FEM1B]
3.42
TLGKVLKVIVVMRSLFIDRTIVKG [MED27]
3.01
KEGRPGIPGLPGLRGLPGERGTPG [SCARA5]
4.21

Now examine the next entry.
What value of measured protein stability index is listed for TSCIVIILIIISVIVQIKQPRKKY [NETO1] ? 3.26

---

Test: protein stability index of a GFP-peptide fusion (GPS, HEK-293T) (PSI 1-6); higher = more stable
Conditions: treatment: MLN4924 1 uM, 8 h; c terminus: a fixed tail appended
Entries annotated with measured protein stability index
Give the value as a plain number.

AARAGHVCTVQFLISKGANVNRTT [ANKRD17]
2.07
ETLLGDPKRRMRYFDPLRNEYFFD [KCNA3]
2.79
VCVEHHTFFRLLLPEAPPKKFLTL [EPB41L3]
2.85
GEGEPGQGEGPEAGDAEVCPTPAR [NOP53]
5.67
GGGTPSLASPHTVAAVLEAVAQTA [RSAD1]
3.54

Would you mind telling me what protein stability index value was observed for IEETYSKAMAKLSKLASNGTPMGT [FCHO1] ? 3.78

Would you mind telling me what protein stability index value was observed for STCDTLGMADVGTVCDPARSCAIV [ADAMTS4] ? 3.69

Using the record for EPYGHLNPKWTKWLQKLCCPCCFG [PI4K2A] , report its protein stability index. 3.37

---

Assay: protein stability index of a GFP-peptide fusion (GPS, HEK-293T) (PSI 1-6); higher = more stable
Details: treatment: DMSO; c terminus: a fixed tail appended
Please enter fulfilled where protein stability index is greater than or equal to 4, and not fulfilled where it is lower.

Given VTSDVNKLSSFYSLKLIKRLYVDK [SERPINB5] , state whether its protein stability index is at least 4. not fulfilled

protein stability index >= 4 for KGELAPELGEEPQPRDEEEAELEL [POLD4] ? fulfilled

Test whether the sequence SPRDLQFSEIRETSAKVNWMPPPS [TNXB] records protein stability index of 4 or higher. not fulfilled

---

Here the recorded protein stability index is given for each entry.
Assay: protein stability index of a GFP-peptide fusion (GPS, HEK-293T) (PSI 1-6); higher = more stable
Details: treatment: MLN4924 1 uM, 8 h; c terminus: a fixed tail appended
Field format: numeric only.

Use the examples below as a reference point.
VMARTRLVVPNKGYSSLDQSPDEK [FAM219A]
3.88
VAAAASRGADDAMESSKPGPVQVV [ATL3]
4.9
ERRGTPADTEEPTKDPDVAFHGLS [PSD2]
5.38

What value of protein stability index has been recorded for this entry: NDLLEILEIDDLDAIVPAVKKLKV [CEP70] 2.87

Field request: protein stability index | item: DMRRDEEGSLCAAHLPKAQLSGYA [FBF1] 4.15

---

Quick reference for protein stability index among some sequences
Assay: protein stability index of a GFP-peptide fusion (GPS, HEK-293T) (PSI 1-6); higher = more stable
Conditions: treatment: MLN4924 1 uM, 8 h; c terminus: a fixed tail appended

Before answering, review these 8 worked examples.
LGPSPQRDPQAVKERALSAPWLSL [ZNF263]
2.77
TWALYNLVSVYPDKYCPLLIKEGG [ZER1]
2.26
VASKMKETIPLTAEKLCIYTDNSI [CCND1]
3.33
SVHFDGETIEGAPPLWAASAAGHL [FEM1A]
3.47
EQVANKGEPLALPLDAGEYCVPRG [BEX1]
4.79
YDPDYIQCPYCQRRFNENAADRHI [ZC2HC1A]
4.16
VTSDVNKLSSFYSLKLIKRLYVDK [SERPINB5]
2.29
KEYPVVPRSTVRQKVASNHSPFSS [TBX5]
3.72

Which protein stability index is listed for RCLVRCLLRREPAERLTATGILLH [TRIB3] ? 2.44

// lookup protein stability index for LEGQSGVTIKHVACGDFFTACLTD [NEK8] 2.89

Value lookup for protein stability index; key = DKFVATMYHYLQFAYYKLNDVRQA [P3H4] 2.77

Param item = SDDLERTIEERVNILFDFVKKKKE [EIF5] ; retrieve measured protein stability index. 4.2

For the sequence TGEVRTARALLEDDSDTQQVVVLV [PCDHGC5] , what protein stability index is on record? 2.82

Can you look up the measured protein stability index of IIWFSFELVVRFFACPSKTDFFKN [KCNA1] for me? 3.04

Sample PPAEEAEQPGALAREFLAAMEPEP [FKBP8] — what was its protein stability index? 5.57

Query (sequence): QATKASLKERFAFLFNSELLSDVR [BTBD1] ; field requested: protein stability index 2.67

So what does the record say about protein stability index for SRSRSRSRSNSRSRSYSPRRSRGS [SRSF1] ? 5.6

I am curious: what protein stability index value has been reported for PFKRFLRKKSKPKKCVKKFVEYCD [SMOC2] ? 2.59

Value lookup for protein stability index; key = LAGTFHYYSCERAKKAMGYQPLVT [NSDHL] 2.27

Given the sequence RSFKEELLCAVCYDPFRDAVTLRC [TRIM35] , what is its reported protein stability index? 2.61

Please give the measured protein stability index for this sequence: FGWETKIKAWMDRYEEANNNQYSE [KMT2E] 3.58

// lookup protein stability index for LEGQDAKMIGFPSSAGSVSPRSTS [KRT13] 5.15

Request the reported protein stability index associated with GALMEVMQKRSKAIHSSDEDEDED [WASL] 5.41

Please report the recorded protein stability index for RNKIIAATIENAQPILQIDNARLA [KRT16] . 3.64

protein stability index for PSVCSENIHPQVLLPDQARGEVPW [ZNF263] ? 4.34

Recorded protein stability index for LWEAPPLGAGGGSLLPGAVEQPQP [NEK8] , please? 4.36

Entry under review: GGSSGQVTSNGSIGRDPPAETQPQ [CLPTM1] . Reported protein stability index? 5.42

---

protein stability index values, listed per item
Assay: protein stability index of a GFP-peptide fusion (GPS, HEK-293T) (PSI 1-6); higher = more stable
Settings: treatment: MLN4924 1 uM, 8 h; c terminus: a fixed tail appended
Output spec: single numeric token, no unit.

YYFGPCGKYNAMVLELLGPSLEDL [CSNK1G3]
2.66
QFFTKGYQETISDVLNDAIFDEDH [GCH1]
3.92
FLVSAVAHEYIFCFVLGFFYPVML [SOAT2]
3.3

Which value of protein stability index has been reported for RYEPDSKAFGVGVAYRSLGRFEQL [FSD1] in the records? 2.63

Entry TEQLWRIFAGVHDEKAKPRDRQQA [TLE6] : reported protein stability index = ? 3.76

I'd like to know its protein stability index. The sequence in question is SLFCLEDKELLCCSCQADPRHQGH [TRIM35] 3.35

// lookup protein stability index for CEKFLQEVDFFQRYFIADLPHLQD [INTS4] 1.95
